Overview of reported IC50 at 5 days across a group of compounds:
assay: MTT cytotoxicity assay, KB3.1; format: cell-based, human; details: human, HeLa (KB-3-1) cells, KB3.1 cells, 5 days incubation

>  <Compound>
CC(=O)C1=CC[C@H]2C3=CC(=O)[C@H]4C[C@@H](O)CC[C@]4(C)[C@@]3(O)CC[C@]12C [Compound 3, Aethiopinolone C]

>  <IC50 at 5 days>
35 µg/mL

$$$$
>  <Compound>
CC(=O)[C@H]1[C@H](O)C[C@H]2C3=CC(=O)[C@H]4C[C@H](O)CC[C@]4(C)[C@@]3(O)CC[C@@]21C [Compound 2, Aethiopinolone B]

>  <IC50 at 5 days>
39 µg/mL

$$$$
>  <Compound>
CC(=O)C1C(O)CC2C3=CC(=O)C4CC(O)CCC4(C)C3(O)CCC21C (centres unmarked) [Compound 1, Aethiopinolone A]

>  <IC50 at 5 days>
19 µg/mL

$$$$
>  <Compound>
CC(=O)C1=CC[C@H]2C3=CC(=O)[C@H]4CC(=O)CC[C@]4(C)[C@@]3(O)CC[C@]12C [Compound 5, Aethiopinolone E]

>  <IC50 at 5 days>
33 µg/mL

$$$$
>  <Compound>
CC(=O)C1=CC[C@H]2C3=CC(=O)[C@H]4C[C@H](O)CC[C@]4(C)[C@@]3(O)CC[C@]12C [Compound 4, Aethiopinolone D]

>  <IC50 at 5 days>
39 µg/mL

$$$$

###

assay: MTT cytotoxicity assay, PC-3; type: cell-based, human; details: human, PC-3 prostate cancer cells, PC-3 cells, 5 days incubation
Measured metric: IC50 at 5 days (µg/mL)

>  <Compound>
CC(=O)C1=CC[C@H]2C3=CC(=O)[C@H]4C[C@H](O)CC[C@]4(C)[C@@]3(O)CC[C@]12C [Compound 4, Aethiopinolone D]

>  <Display unit>
µg/mL

>  <Censoring operator>
=

>  <Value reported>
40

$$$$
>  <Compound>
CC(=O)C1=CC[C@H]2C3=CC(=O)[C@H]4CC(=O)CC[C@]4(C)[C@@]3(O)CC[C@]12C [Compound 5, Aethiopinolone E]

>  <Display unit>
µg/mL

>  <Censoring operator>
=

>  <Value reported>
39

$$$$
>  <Compound>
CC(=O)C1C(O)CC2C3=CC(=O)C4CC(O)CCC4(C)C3(O)CCC21C (centres unmarked) [Compound 1, Aethiopinolone A]

>  <Display unit>
µg/mL

>  <Censoring operator>
=

>  <Value reported>
8

$$$$
>  <Compound>
CC(=O)C1=CC[C@H]2C3=CC(=O)[C@H]4C[C@@H](O)CC[C@]4(C)[C@@]3(O)CC[C@]12C [Compound 3, Aethiopinolone C]

>  <Display unit>
µg/mL

>  <Censoring operator>
=

>  <Value reported>
45

$$$$
>  <Compound>
CC(=O)[C@H]1[C@H](O)C[C@H]2C3=CC(=O)[C@H]4C[C@H](O)CC[C@]4(C)[C@@]3(O)CC[C@@]21C [Compound 2, Aethiopinolone B]

>  <Display unit>
µg/mL

>  <Censoring operator>
>

>  <Value reported>
70

$$$$

###

assay: MTT cytotoxicity assay, MCF-7; type: cell-based, human; settings: human, MCF-7 breast cancer cells, MCF-7 cells, 5 days incubation
// values below are reported IC50 at 5 days
Measured metric: IC50 at 5 days (µg/mL)

>  <Compound>
CC(=O)C1=CC[C@H]2C3=CC(=O)[C@H]4C[C@H](O)CC[C@]4(C)[C@@]3(O)CC[C@]12C

>  <Measured metric>
IC50 at 5 days

>  <Censoring operator>
=

>  <Value reported>
17

$$$$
>  <Compound>
CC(=O)[C@H]1[C@H](O)C[C@H]2C3=CC(=O)[C@H]4C[C@H](O)CC[C@]4(C)[C@@]3(O)CC[C@@]21C

>  <Measured metric>
IC50 at 5 days

>  <Censoring operator>
>

>  <Value reported>
70

$$$$
>  <Compound>
CC(=O)C1=CC[C@H]2C3=CC(=O)[C@H]4CC(=O)CC[C@]4(C)[C@@]3(O)CC[C@]12C

>  <Measured metric>
IC50 at 5 days

>  <Censoring operator>
=

>  <Value reported>
16

$$$$
>  <Compound>
CC(=O)C1=CC[C@H]2C3=CC(=O)[C@H]4C[C@@H](O)CC[C@]4(C)[C@@]3(O)CC[C@]12C

>  <Measured metric>
IC50 at 5 days

>  <Censoring operator>
=

>  <Value reported>
18

$$$$
>  <Compound>
CC(=O)C1C(O)CC2C3=CC(=O)C4CC(O)CCC4(C)C3(O)CCC21C (centres unmarked)

>  <Measured metric>
IC50 at 5 days

>  <Censoring operator>
=

>  <Value reported>
20

$$$$
